# Assayed target: MSI1 full-length (mouse, UniProt Q61474 1-362)
# Sequence (Q61474 whole entry): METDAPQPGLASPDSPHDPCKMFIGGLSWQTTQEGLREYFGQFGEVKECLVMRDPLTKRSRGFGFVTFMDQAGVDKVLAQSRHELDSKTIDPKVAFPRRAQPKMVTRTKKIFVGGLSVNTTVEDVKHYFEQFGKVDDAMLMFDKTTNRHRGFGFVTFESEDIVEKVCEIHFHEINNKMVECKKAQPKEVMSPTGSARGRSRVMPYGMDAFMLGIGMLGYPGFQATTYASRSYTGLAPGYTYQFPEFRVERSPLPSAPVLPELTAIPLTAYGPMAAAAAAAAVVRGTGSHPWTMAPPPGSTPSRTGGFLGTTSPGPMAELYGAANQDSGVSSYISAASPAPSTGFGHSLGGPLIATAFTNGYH
# Method summary: nsRBNS (natural sequence RNA bind-n-seq); RBNS binding buffer (assumed for nsRBNS): 25 mM Tris pH 7.5, 150 mM KCl, 3 mM MgCl2, 0.01% Triton X-100, 500 ug/ml BSA, 20 U/ml SUPERase-In, 4 C; UNK is unkempt and MSI1 is Musashi-1; names of the RNAs are library labels; protein concentration not given here; high values mean tight binding
Whole data set: some 5,800 sequences, median “enrichment r” near 0.54, cut for the highest 2% near 16. Only a selection was taken, and the highest values are over-represented in it overall.
Readout: binding signal (enrichment R)
Express the result in enrichment R but write the number alone.

Observe how each entry below is paired with its result.
Binder	Experimental result
ENSG00000124766:be:win_751|CDS|ENSG00000124766|bound_else_gene|NA|bound_elsewhere_windowed (ssRNA) RNA: GGGAGUUCUACAGUCCGACGAUCGGCGCCGCCGCCGACCACCACUCGCUGUACAAGGCGCGGACUCCCAGCGCCUCGGCCUCCGCCUCCUCGGCAGCCUCGGCCUCCGCAGCGCUCGCGGCCCCGGGCAAGCACCUGGCGGAGCAACAGAGGAUUGAGCAUCA	0.389
chr10:110135209:110135310:+|3pUTR|ENSG00000148700|msi1|total|mutant (ssRNA) RNA: GGGAGUUCUACAGUCCGACGAUCCUCUCUAUUGGAAGAUUUUUUUAAUGUUCUACAUCAUUUAUGUUGUAUUACAAUGUAUGCCGAAACCGUAACCUGUGAACUAUGCUUUUCCAUAACUUUUUAAAAAUAUAUAUAUCUAAACAACAGAGGAUUGAGCAUCA	7.3

What value of binding signal has been reported for the following binder? chr2:158176520:158176661:-|CDS|ENSG00000153237|control|control|control (ssRNA) RNA: GGGAGUUCUACAGUCCGACGAUCGCUGUUGUUGCUCAAUUUGAUCCUGUUAGAAUGAUGUCAGAUACAAUGGCAUCAAAAGCUAGAAUGGGCAUUGAAAUUGAAGAAGAAUUUAUUCUUCAAAAGCCACUCUUCACAUUGAAUCAACAGAGGAUUGAGCAUCA
0.406

Where these numbers come from: paper PMC12136788
